Assay: Partition coefficient (octanol / water)
Type: physicochemical
Settings: ratio of concentrations in nonpolar medium, e.g. octanol, and aqueous medium, e.g. water
endpoint_name: logP

Nc1nc2c(ncn2COC(COC(=O)C23CC4CC(CC(C4)C2)C3)COC(=O)C23CC4CC(CC(C4)C2)C3)c(=O)[nH]1 (centres unmarked) [Ada-DHPG] = ~5.45

// switching to the query compound
Using the record for Nc1nc2c(ncn2COC(CO)CO)c(=O)[nH]1 [DHPG, 9-(1,3-dihydroxy-2-propoxymethyl)guanine, reference compound] , report its logP.
< -1
